Hello, the source for this data is the NTF2 design screens of Basanta et al. (2020), in case you need it.

Measured protease stability score, listed per entry for reference.
Experiment: protease stability score; higher = more stable; yeast display proteolysis, trypsin and chymotrypsin;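 note: log10 excess protease needed over predicted unfolded state with 0 meaning unfolded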

DTHKLREHARSMVEAMEDGDPQHLAKLMDENAKVTVGDKDVHGEEQAKRWAREWQKRFDHVEVDDLKVDNGRIRVKFHAQVNGREIFVIVKVEVRNGRIRSLSLEVRDEHVEKRLQD | 0.909
DEHAARVQHEIQKVQETGDEERVRELVDPNVKIQVGDKTIHGMDEYLTRVKKRMDELRFSVTWRHYDVHNGQVNVKVEFTKDHNGKPQRDVMVMKFHIHNGRVQFLSMEKDQ | 0.843
DEEVKRLAERILSALERGDPQQISDNFDPNARLEIGDKRIHGREELRKYVDTVRKTQRISIRSFRVSVHNGQVDIDIHFENEHNGDPDERRRSINIQASNGKAKNVVYQDNK | -0.336

Challenge: Which protease stability score is reported for this sequence? "DDQKKKELMQKMVEAYLSGHHEEVEKLGKDDGKVEAGDRKYEGSEQARKAAKQFKTYGVELRITDMQQDGDRLDVKAEAHMGGVTWEFTATVTADGGKVDKIQIDASDDAKKAIKDG"
Response given: 0.725

====

Assay: protease stability score; higher = more stable; yeast display proteolysis, trypsin and chymotrypsin;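 note: log10 excess protease needed over predicted unfolded state with 0 meaning unfolded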
Everything with protease stability score lower than 0.4 is NO; everything else, including exactly 0.4, is YES.

Sample answers from the record:
DEEKLDKVMKMVRDALQKGDQEKAQKLVKPDGHFQVGDQELNGYDQVRKYYKKVKDLGAEAHVKKTDVRGNTFRLEYDARLKGVQVTIRLEVRVKDEKVDEARADMTEDYAKHVTKG | YES
DEEEQHKRAREYMQMFEDNDEKNLMHMADENARLVVGDKTYRGKEELSKQVREQKKRVDHNQVHSVRLHNGRVVIDVTLHHNGHREKRIIRVQLRNGRIKSIVYESG | NO
DERAIRTVTRFWTAIKHNDPDKAVENVDPNARFRIGDREVDGDEDAKQWIEEMKRHMHIDIRSLRARDQGDKIEINFKFVISYNGRPQSQTQHATARVHNGKIHEVDINFDDQKKRELDS | NO
DEKDNKTLHKIIRHGDWKKLQDLADENASVDIGNKKFHGRREVSKAMERLREKVDSVQYHSITVEGNSARIVYNLEVNGNRVKVQMKFSMHNGHLQEVVIRATNEEDSKKIDKQLG | YES
DEKDQEQILRELAEIMKSGDEHEMENLADENVKVKIGDKTLKGKEQFRHQLKRERDRVDHLKILDMEAQGDRFIIRWQEEFNGQTRRMQVDIHIKNGKIKSAEYRHQ | YES
DRKAEKLLEDLLDARRTNDEKKLQDLMDPNVKVDVGNKHYEGRERNAKSYAQEYKQMRLEIRVKSIHNNGNHVIQTFDADVRINGKPIRFRAQMMLHFHNGRVQHVYLRLDPSVEQHRRD | NO
DSHQQAREMVRELQRILETNDTDKWRHMFDPNARAQYGDKEYHGRDQVTHYLQEQTQRVDSVRVNIDEVDVSGDKLRVVFTLVRVHNGEEKSDTYVFVLRFHGDHARIESFRRK | YES
DEEKEFHKMIKELDKVAKRNDEQSVQNLADKDVEVTYGDKSYHGREVLRRMFRDQLTRADKVRITMKSYTVRGDKAHAVLNVVLDHNGRQEHIDVKVTAQADNGRVRLKHVNIP | NO

Challenge: Could you please find out whether "DEHAVEVAKKIVEAWKDGDPKRFNELFDPNAQLRVGDHHFHGSHEADRHMQTINKEQRVRYKNVRVESRPGRVEVRVDMEKTHDGRPRRSEFTVQINVHDGQVKKLTVQEDG" has protease stability score that meets 0.4 or exceeds it?
Response given: NO

Challenge: Same question, "DEEELKHLMKVQTTGDPDKYEEMADKDVKAKIGDETYHGRETVLTQLRRMLTQIDHLEVKNVDTQGDKVNLRAVANYNGQELDVIYVLVVHNGRVDNMEIDARDEKVEDQLRQAMS" this time
Response given: NO

Challenge: Same question, "DEEQVKKVVKVLMEYFKRGDVDQIVRMIDEDVEFKLLDEKKKGQEQVKTVIKKLHDQGAEVHVDHAEVEGDKATVDTRWHIGDHTMEATVEYYVEGDRVKKVKVQWSEEAKKALHAG" this time
Response given: YES

Challenge: Same question, "DEEFNKEVKKMFDNLEKGNEEEYLRMLDENAKAQYGDHDVRGREELKKELHRQRKEIRVKYQSVDIRMHNGELSVRFRAEVVVNGRPHTVERTQSAKVQNGRVQSMKLKIDEEQKERLEG" this time
Response given: NO

Challenge: Same question, "DEDDLQRKVERINSALQTNDEDEFVRQLDEDAKISVGDKTVHGQEKAREWVQDLRRTVDHIRVDHVKVHNGRAHVTMKAVVNGKNVEITMQMTLHNGKVKEMRIDPEDVEKLEG" this time
Response given: YES

====

Assay: protease stability score; higher = more stable; yeast display proteolysis, trypsin and chymotrypsin;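 note: log10 excess protease needed over predicted unfolded state with 0 meaning unfolded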
Measured protease stability score, listed per entry for reference.
Simply state the number, no unit and no words.

EDEVNKILEDVATAIRTGDPDRVVENLDPNAKVQVGDKTLDGQKEVREFFERNQREASVRLHVTSVHVNGDKVKMKANYQQNRNGNPDFKDVDVTAHAHNGKLKVMEHRRDG | -0.451
DQEKNNHDAKKWVKNLRTGNEDELQRLFDEDARFNYGDKTVTGREQLQEWAHRMQRRIDSVDVRSVSQHGDKMNIDVVVRVDGRDRRFIFRAEIHNGRIKNAWMEDT | 0.497
DEEHREDSIRKVFEVLQTGDPKRFRENVDKNAKARVGDREVRGTKAADTFAHNIVKRADHVRIRRVHVHNGVVVVTEQQTVNGKEVIMVVFMEMNNGKMKLVEVNPEQLKELEG | -0.394
DEELAKHFERVVRENNPDELQKQFDEDARVSVGNKRYHGREKVNDAIKRFMTNADEIRIEDIEIHGETIKVVYRFRVDGQSARVVMVVNIKDGRVKEMKISATDPRDVKVLDEVME | 1.7

Challenge: Which protease stability score is reported for this sequence? "DEHTERTLSRLVKRNDEKTMADRADENARAEYGDTTYHGKEEFKKWVNKMEERVDHRDLKEIRVHGNKIKVKMDQEVNGRRVEMEFEAHYHNGRLKFEVMKVRDEEQKEQLKQQQT"
Response given: -0.09

Challenge: Same question, "DEENIEQLRRMMTNLNTGDFHKMVNLMDPNARVRYGDRQISGREEVRKEWEKIVKSMHIERQVRSIEDHDGRAYADVELRVNVDGRPFSVRFTVVVEVRNGRVKFLEVRVPEEFMEKLDS" this time
Response given: 1.07

====

Assay: protease stability score; higher = more stable; yeast display proteolysis, trypsin and chymotrypsin;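 note: log10 excess protease needed over predicted unfolded state with 0 meaning unfolded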
Measure Name: protease stability score
Simply state the number, no unit and no words.

Example entries and their recorded answers appear below.
DEESNHDVARKLMRALETGDPDKLRELADKHARITVGEKTIHGREDASRFAKELRDRIDHATVKHMDVDGNKVVINMTVRVNGRDLEVFVTAIVTNGRIKHIRFQYTDEDKNKEVEG | 1.18
DEERYKQLMEKAFKMIKQGNEEEARKLLKPDVEYHYADKTFRGEEAAQFIVKVVQKLGAEDHNQRQEVNGDTMKADFRYTQGDQTVQTKAEVIYKGDKATEARVEMSDEVKKVLDQG | -0.052

Now for a further sequence.
Challenge: Which protease stability score is reported for this sequence? "DEEDQKRKANNVAENLINGNEDEARKYIDKDARVHVGDKTYRGREEARKVWHELRKKVDHLRVEHIDVQGDKVDVQAFFRHNGNQTNIQVHIRMENGHVKSISVDNR"
Response given: -0.216

====

Assay: protease stability score; higher = more stable; yeast display proteolysis, trypsin and chymotrypsin;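 note: log10 excess protease needed over predicted unfolded state with 0 meaning unfolded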
Measure Name: protease stability score
Simply state the number, no unit and no words.

DEEILNKAVEALRVEHQGNRKDLKRMFDPNAKRRVGDKTITGMDNLLKELSDKRRHLNVDVKIDSLHAEGNRVELDVSQRQNTNGQPSEFRAKIVITVKNGRMVDVTIHRTK | -0.016
EEEKYQKLAKKVFEAVDKGNYEEVVKLGDENGKFQFGDNRVEGLEQYKRLMEKFEKKGVQVRVRKAQNKDDTATMVTTVKYGDVENTVTAELKYEGGKLKEARVENDEEVKEAVKKG | 0.031
DEDKAKEFMRKALHILLEGDPDKFVRMADKDAHIQVGEHTVHGREQVRKFIQELQDKVDHNDVVDYEVRPNHANIEFQMNVNGRTVRMRVRLEFKNGKFKRATFDPDDVRKLHT | 1.33
DEDQMAETLFDEIRKIWETGSEEDAKKMMDPNAHVHVGDKEVTGREEIAKRLHDEAKKADHINLTLEDVEVKGDKAQLHVRFQLHVNGKRDERRIVFVFRNHNGRLIMVTASDS | 1.44
DEEREAKEWMELFEDQFRQGNEHEVNKLMDKDARIHVGEKHVSGRNQAKKELKEHMKRADHIHIQLHEVDSRPGRMILDFTINQQVNGRRSSDKVRARFSKRNGRWYQESETQG | 0.104

Now for a further sequence.
Challenge: Which protease stability score is reported for this sequence? "EEEDEKRIKSLLEHNDFTRFAELVDKDAHAVIGDKTIHGREEIKKEIEEFKKRIDHLEWKRVDVRNGKVSARMQVTINGRTLDVYMRADVENGHIHYVEIHARTEEAQRVLDEVLS"
Response given: 1.58
